Sourced from PubChem BioAssay (NCATS)

Experiment: qHTS assay for small molecule agonists of the antioxidant response element (ARE) signaling pathway (AID 651741)
Settings: HepG2 ARE-bla reporter, beta-lactamase FRET ratio, 16 h; series mostly up to 96 µM
Records with an inconclusive call do not appear. Calls of active or inactive are those of the source. Calls come from the whole dose curve; as a rule, active = well fitted activation curve with a large enough effect in the signal ratio; inconclusive = small, poorly fitted or top-dose-only effect, or effect the other way, or a change in a side signal; inactive = flat fitted curve, though single readings scatter; the % refers to the signal ratio.
Labels: active, inactive

{"compound": "C=Cc1cccc(C)c1", "answer-label": "inactive"}
{"compound": "c1c[nH]cn1", "answer-label": "inactive"}
{"compound": "CC(=O)CC(=O)Nc1ccccc1", "answer-label": "inactive"}
{"compound": "O=[N+]([O-])c1ccc(F)cc1F", "answer-label": "inactive"}
{"compound": "O=c1[nH]ncc2ccccc12", "answer-label": "inactive"}
{"compound": "CCCCNCC", "answer-label": "inactive"}
{"compound": "COc1ccc(C)cc1N", "answer-label": "inactive"}
{"compound": "CC/C=C/C/C=C/C/C=C/CCCCCCCC(=O)OCC", "answer-label": "active"}
{"compound": "c1ccncc1", "answer-label": "inactive"}
{"compound": "Nc1cnn([C@@H]2O[C@H](CO)[C@@H](O)[C@H]2O)c(=O)n1", "answer-label": "inactive"}
{"compound": "S=C(NC1CCCCC1)NC1CCCCC1", "answer-label": "active"}
{"compound": "Brc1cc(Oc2cc(Br)c(Br)c(Br)c2Br)c(Br)c(Br)c1Br", "answer-label": "inactive"}
{"compound": "CC(CCC(=O)O)(c1ccc(O)cc1)c1ccc(O)cc1", "answer-label": "inactive"}
{"compound": "Cc1c(N)cccc1Cl", "answer-label": "inactive"}
{"compound": "C=CC(C)(O)CCCC(C)CCCC(C)CCCC(C)C (stereo not given)", "answer-label": "inactive"}
